tested on: HepG2; test: Cytotoxicity against human HepG2 cells after 72 hrs by SRB assay; type: functional, cell-based; conditions: HepG2, 72 h
Structures can show the parent of a compound that is named as a salt.
# reported pIC50; entries follow
# log scale: pIC50 equals minus log10 of the concentration in mol/L

Use the examples below as a reference point.
CCC1=C[C@@H]2C[C@](C(=O)OC)(c3cc4c(cc3OC)N(C)[C@H]3[C@@](O)(C(=O)OC)[C@H](OC(C)=O)[C@]5(CC)C=CCN6CC[C@]43[C@@H]65)c3[nH]c4ccccc4c3CC[N@@+](CC(=O)/C=C/c3ccc(Cl)cc3)(C1)C2 :: 5.76
CC[C@]1(O)C[C@H]2CN(CCc3c([nH]c4ccccc34)[C@@](C(=O)OC)(c3cc4c(cc3OC)N(C=O)[C@H]3[C@@](O)(C(=O)OC)[C@H](OC(C)=O)[C@]5(CC)C=CCN6CC[C@]43[C@@H]65)C2)C1 [VINCRISTINE SULFATE] :: 6.16
CC[C@]1(O)C[C@@H]2C[C@](C(=O)OC)(c3cc4c(cc3OC)N(C=O)[C@H]3[C@@](O)(C(=O)OC)[C@H](OC(C)=O)[C@]5(CC)C=CCN6CC[C@]43[C@@H]65)c3[nH]c4ccccc4c3CC[N@+](CC(=O)/C=C/c3ccc4ccccc4c3)(C2)C1 :: 5.10

Data request: Dear colleague, I am looking for the recorded pIC50 of the following compound: CCC1=C[C@@H]2C[C@](C(=O)OC)(c3c(OC)cc(N)cc3OC)c3[nH]c4ccccc4c3CC[N@@+](CC(=O)/C=C/c3ccc4ccccc4c3)(C1)C2
Data returned: 4.96

Data request: Recorded pIC50 of CC[C@]1(O)C[C@H]2CN(CCc3c([nH]c4ccccc34)[C@@](C(=O)OC)(c3cc4c(cc3OC)N(C)[C@H]3[C@@](O)(C(=O)OC)[C@H](OC(C)=O)[C@]5(CC)C=CCN6CC[C@]43[C@@H]65)C2)C1 , please.
Data returned: 6.47

Data request: Reported pIC50, compound CCC1=C[C@@H]2C[C@](C(=O)OC)(c3c(OC)cc(N)cc3OC)c3[nH]c4ccccc4c3CC[N@@+](CC(=O)/C=C/c3ccc(Cl)cc3)(C1)C2 : ____
Data returned: 4.69

----------
test system: Lu1; assay: Cytotoxicity against human Lu1 cells after 72 hrs by SRB assay; assay type: functional, cell-based; conditions: Lu1, 72 h
OBSERVABLE: IC50 (µM)
Answer with a number only, understood to be in µM.

Answered examples (5):
CCC1=C[C@H]2CN(CCc3c([nH]c4ccccc34)[C@@](C(=O)OC)(c3c(OC)cc(N)cc3OC)C2)C1 :: 19.4
CC[C@]1(O)C[C@@H]2C[C@](C(=O)OC)(c3cc4c(cc3OC)N(C)[C@H]3[C@@](O)(C(=O)OC)[C@H](OC(C)=O)[C@]5(CC)C=CCN6CC[C@]43[C@@H]65)c3[nH]c4ccccc4c3CC[N@+](CC(=O)/C=C/c3ccc(O)c(OC)c3)(C2)C1 :: 4.8
Cc1c2ccncc2c(C)c2c1[nH]c1ccccc12 :: 2.31
CCC1=C[C@@H]2C[C@](C(=O)OC)(c3c(OC)cc(N)cc3OC)c3[nH]c4ccccc4c3CC[N@@+](CC(=O)/C=C/c3ccc(Cl)cc3)(C1)C2 :: 13.8
CCC1=C[C@@H]2C[C@](C(=O)OC)(c3cc4c(cc3OC)N(C)[C@H]3[C@@](O)(C(=O)OC)[C@H](OC(C)=O)[C@]5(CC)C=CCN6CC[C@]43[C@@H]65)c3[nH]c4ccccc4c3CC[N@@+](CC(=O)/C=C/c3ccc4ccccc4c3)(C1)C2 :: 3.71

Data request: Bench note: what IC50 did CCC1=C[C@@H]2C[C@](C(=O)OC)(c3cc4c(cc3OC)N(C)[C@H]3[C@@](O)(C(=O)OC)[C@H](OC(C)=O)[C@]5(CC)C=CCN6CC[C@]43[C@@H]65)c3[nH]c4ccccc4c3CC[N@@+](CC(=O)/C=C/c3ccc(O)c(OC)c3)(C1)C2 show?
Data returned: 57.5

Data request: // IC50 lookup, key: CCC1=C[C@H]2CN(CCc3c([nH]c4ccccc34)[C@@](C(=O)OC)(c3cc4c(cc3OC)N(C)[C@H]3[C@@](O)(C(=O)OC)[C@H](OC(C)=O)[C@]5(CC)C=CCN6CC[C@]43[C@@H]65)C2)C1
Data returned: 5.98

Data request: Using the record for CC[C@]1(O)C[C@@H]2C[C@](C(=O)OC)(c3cc4c(cc3OC)N(C)[C@H]3[C@@](O)(C(=O)OC)[C@H](OC(C)=O)[C@]5(CC)C=CCN6CC[C@]43[C@@H]65)c3[nH]c4ccccc4c3CC[N@+](CC(=O)/C=C/c3ccc4ccccc4c3)(C2)C1 , report its IC50.
Data returned: 15.1

Data request: Give its IC50 value. Item: CC[C@]1(O)C[C@@H]2C[C@](C(=O)OC)(c3cc4c(cc3OC)N(C=O)[C@H]3[C@@](O)(C(=O)OC)[C@H](OC(C)=O)[C@]5(CC)C=CCN6CC[C@]43[C@@H]65)c3[nH]c4ccccc4c3CC[N@+](CC(=O)/C=C/c3ccc(O)c(OC)c3)(C2)C1
Data returned: 3.45
